Taken from patent US9499550B2.

# Tested on: HCV genotype 1b (Con1) replicon in HUH-7 cells
# experimental-details: HCV replicon luciferase reporter assay, genotype 1b
# Assay type: cell-based
# condition-set: Hepatitis C virus, Huh-7, 72 h, HCV genotype 1b replicon luciferase, 3 days incubation, read-out: LE_1b (EC50, range)
experimental-readout: EC50

COc1ccc2c(O[C@@H]3C[C@H]4C(=O)N[C@]5(C(=O)NS(=O)(=O)C6(CF)CC6)C[C@H]5/C=C\CC[C@@H](C)C[C@@H](C)[C@H](NC(=O)OC(C)(C)C(F)(F)F)C(=O)N4C3)nc3c(c2c1)CCCO3	1.01 to 5 nM

Please examine the following record next.
Report EC50 for `CCCOc1cnc(O[C@@H]2C[C@H]3C(=O)N[C@]4(C(=O)NS(=O)(=O)C5(C)CC5)C[C@H]4/C=C\CC[C@H](C)C[C@@H](C)[C@H](NC(=O)OC(C)(C)C)C(=O)N3C2)c2ccccc12` 4.82 to 103 nM

====

# Test system: HCV genotype 1a (H77 strain) replicon in HUH-7 cells
# experimental-details: HCV replicon luciferase reporter assay, genotype 1a
# Type: cell-based
# condition-set: Hepatitis C virus, Huh-7, 72 h, HCV genotype 1a replicon luciferase, 3 days incubation, read-out: LE_1a (EC50)
Measured EC50, listed per entry for reference.
Unit nM implied. Number only.

Examples with their reported EC50 follow.
C[C@@H]1CC/C=C\[C@@H]2C[C@@]2(C(=O)NS(=O)(=O)C2(CF)CC2)NC(=O)[C@@H]2C[C@@H](Oc3nc4c(c5ccccc35)OCCC4)CN2C(=O)[C@@H](NC(=O)OC(C)(C)C)[C@H](C)C1	1.13
CCCOc1cnc(O[C@@H]2C[C@H]3C(=O)N[C@]4(C(=O)NS(=O)(=O)C5CC5)C[C@H]4/C=C\CC[C@H](C)C[C@@H](C)[C@H](NC(=O)OC(C)(C)C(F)(F)F)C(=O)N3C2)c2ccccc12	522
CCOc1cc2ccnc(O[C@@H]3C[C@H]4C(=O)N[C@]5(C(=O)NS(=O)(=O)C6(C)CC6)C[C@H]5/C=C\CC[C@@H](C)C[C@@H](C)[C@H](NC(=O)OC(C)(C)C)C(=O)N4C3)c2cc1F	0.92
COc1ccc2c(O[C@@H]3C[C@H]4C(=O)N[C@]5(C(=O)NS(=O)(=O)C6(C)CC6)C[C@H]5/C=C\CC[C@@H](C)C[C@@H](C)[C@H](NC(=O)OC(C)(C)C(F)(F)F)C(=O)N4C3)nc3c(c2c1)CCCO3	0.31
C[C@@H]1CC/C=C\[C@@H]2C[C@@]2(C(=O)NS(=O)(=O)C2(CF)CC2)NC(=O)[C@@H]2C[C@@H](Oc3nc4c(c5ccccc35)OCCC4)CN2C(=O)[C@@H](NC(=O)OC(C)(C)C(F)(F)F)[C@H](C)C1	1.43

// switching to the query compound
Give reported EC50 for `COc1cc2ccccc2c(O[C@@H]2C[C@H]3C(=O)N[C@]4(C(=O)NS(=O)(=O)C5(C)CC5)C[C@H]4/C=C\CC[C@@H](C)C[C@@H](C)[C@H](NC(=O)OC(C)(C)C(F)(F)F)C(=O)N3C2)n1` (HCV genotype 1a (H77 strain) replicon in HUH-7 cells) 1.19

====

# System: HCV genotype 1b (Con1) replicon in HUH-7 cells
# experimental-details: HCV replicon luciferase reporter assay, genotype 1b
# Assay type: cell-based
# condition-set: Hepatitis C virus, Huh-7, 72 h, HCV genotype 1b replicon luciferase, 3 days incubation, read-out: LE_1b (EC50, range)
Listed below: EC50 values for each entry.

COc1ccc2c(O[C@@H]3C[C@H]4C(=O)N[C@]5(C(=O)NS(=O)(=O)C6CC6)C[C@H]5/C=C\CC[C@@H](C)C[C@@H](C)[C@H](NC(=O)OC5C[C@@H]6C[C@@H]6C5)C(=O)N4C3)nc(-c3ccc(OC(C)C)nc3)cc2c1 (stereo partly shown)	< 5.46 nM
CC[C@@H]1C[C@@H](C)CC/C=C\[C@@H]2C[C@@]2(C(=O)NS(=O)(=O)C2(C)CC2)NC(=O)[C@@H]2C[C@@H](Oc3nnc(OC)c4ccccc34)CN2C(=O)[C@H]1NC(=O)OC(C)(C)C	< 5.46 nM

Input `COc1ccc2c(O[C@@H]3C[C@H]4C(=O)N[C@]5(C(=O)NS(=O)(=O)C6(C)CC6)C[C@H]5/C=C\CC[C@H](C)C[C@@H](C)[C@H](NC(=O)OC(C)(C)C(C)(F)F)C(=O)N4C3)nc(-c3ccc(OC(C)C)cn3)cc2c1` , output reported EC50. 1.01 to 5 nM
